// provenance: patent US5840684A

System: Staphylococcus aureus SA1199B
Type: cell-based
Hi there, I'd appreciate the recorded MIC for every entry that follows.
Report the value in µg/mL with no unit label.

// query MIC value for entry CC(C)CC(C(=O)NC1C(=O)NC(CC(N)=O)C(=O)NC2C(=O)NC3C(=O)NC(C(=O)NC(C(=O)O)c4cc(O)cc(O)c4-c4cc3ccc4O)C(OC3CC(C)(N)C(O)C(C)O3)c3ccc(c(Cl)c3)Oc3cc2cc(c3OC2OC(CO)C(O)C(O)C2OC2CC(C)(NCc3ccncc3)C(O)C(C)O2)Oc2ccc(cc2Cl)C1O)N(C)Cc1ccncc1 (stereo not drawn)
2

Reported MIC for CNC(CC(C)C)C(=O)NC1C(=O)NC(CC(N)=O)C(=O)NC2C(=O)NC3C(=O)NC(C(=O)NC(C(=O)O)c4cc(O)cc(O)c4-c4cc3ccc4O)C(OC3CC(C)(N)C(O)C(C)O3)c3ccc(c(Cl)c3)Oc3cc2cc(c3OC2OC(CO)C(O)C(O)C2OC2CC(C)(NCc3ccc(-c4ccc(C(F)(F)F)cc4)cc3)C(O)C(C)O2)Oc2ccc(cc2Cl)C1O (stereo not drawn) : what is it?
0.5

What does the data say about its MIC? Entry: CC(C)CC(C(=O)NC1C(=O)NC(CC(N)=O)C(=O)NC2C(=O)NC3C(=O)NC(C(=O)NC(C(=O)O)c4cc(O)cc(O)c4-c4cc3ccc4O)C(OC3CC(C)(N)C(O)C(C)O3)c3ccc(c(Cl)c3)Oc3cc2cc(c3OC2OC(CO)C(O)C(O)C2OC2CC(C)(NCc3ccc4ccccc4n3)C(O)C(C)O2)Oc2ccc(cc2Cl)C1O)N(C)Cc1ccc2ccccc2n1 (stereo not drawn)
1

====

System: Staphylococcus aureus 447
assay_summary: broth micro-dilution MIC
Type: cell-based
Consider the following compounds; for each one, report its MIC.

Which MIC value is on record for CNC(CC(C)C)C(=O)NC1C(=O)NC(CC(N)=O)C(=O)NC2C(=O)NC3C(=O)NC(C(=O)NC(C(=O)O)c4cc(O)cc(O)c4-c4cc3ccc4O)C(OC3CC(C)(N)C(O)C(C)O3)c3ccc(c(Cl)c3)Oc3cc2cc(c3OC2OC(CO)C(O)C(O)C2OC2CC(C)(NCc3ccc(OCCCCCCc4ccccc4)cc3)C(O)C(C)O2)Oc2ccc(cc2Cl)C1O (stereo not drawn) ?
8 µg/mL

Look up MIC for this compound: CNC(CC(C)C)C(=O)NC1C(=O)NC(CC(N)=O)C(=O)NC2C(=O)NC3C(=O)NC(C(=O)NC(C(=O)O)c4cc(O)cc(O)c4-c4cc3ccc4O)C(OC3CC(C)(N)C(O)C(C)O3)c3ccc(c(Cl)c3)Oc3cc2cc(c3OC2OC(CO)C(O)C(O)C2OC2CC(C)(NCc3ccc(-c4ccccc4)cc3F)C(O)C(C)O2)Oc2ccc(cc2Cl)C1O (stereo not drawn)
0.5 µg/mL

Returns the measured MIC for the input compound. Input: CNC(CC(C)C)C(=O)NC1C(=O)NC(CC(N)=O)C(=O)NC2C(=O)NC3C(=O)NC(C(=O)NC(C(=O)O)c4cc(O)cc(O)c4-c4cc3ccc4O)C(OC3CC(C)(N)C(O)C(C)O3)c3ccc(c(Cl)c3)Oc3cc2cc(c3OC2OC(CO)C(O)C(O)C2OC2CC(C)(NCc3ccc4c(c3)CCCC4)C(O)C(C)O2)Oc2ccc(cc2Cl)C1O (stereo not drawn)
≤ 0.06 µg/mL

Would you kindly share the measured MIC for CN[C@H](CC(C)C)C(=O)N[C@H]1C(=O)N[C@@H](CC(N)=O)C(=O)N[C@H]2C(=O)N[C@H]3C(=O)N[C@H](C(=O)N[C@H](C(=O)O)c4cc(O)cc(O)c4-c4cc3ccc4O)[C@H](O[C@H]3C[C@](C)(N)[C@@H](O)[C@H](C)O3)c3ccc(c(Cl)c3)Oc3cc2cc(c3O[C@@H]2O[C@H](CO)[C@@H](O)[C@H](O)[C@H]2O[C@H]2C[C@](C)(NCc3ccc(Oc4ccc(C)cc4)cc3)[C@@H](O)[C@H](C)O2)Oc2ccc(cc2Cl)[C@H]1O ?
0.5 µg/mL

Which value of MIC has been reported for CC(C)CC(C(=O)NC1C(=O)NC(CC(N)=O)C(=O)NC2C(=O)NC3C(=O)NC(C(=O)NC(C(=O)O)c4cc(O)cc(O)c4-c4cc3ccc4O)C(OC3CC(C)(N)C(O)C(C)O3)c3ccc(c(Cl)c3)Oc3cc2cc(c3OC2OC(CO)C(O)C(O)C2OC2CC(C)(NCc3ccc(-c4ccc(Cl)cc4)cc3)C(O)C(C)O2)Oc2ccc(cc2Cl)C1O)N(C)Cc1ccc(-c2ccc(Cl)cc2)cc1.O=C(O)C(F)(F)F (stereo not drawn) in the records?
16 µg/mL

I would be grateful if you could share the reported MIC for CCc1ccc(-c2ccc(CNC3(C)CC(OC4C(Oc5c6cc7cc5Oc5ccc(cc5Cl)C(OC5CC(C)(N)C(O)C(C)O5)C5NC(=O)C(NC(=O)C7NC(=O)C(CC(N)=O)NC(=O)C(NC(=O)C(CC(C)C)NC)C(O)c7ccc(c(Cl)c7)O6)c6ccc(O)c(c6)-c6c(O)cc(O)cc6C(C(=O)O)NC5=O)OC(CO)C(O)C4O)OC(C)C3O)cc2)cc1 (stereo not drawn) .
1 µg/mL
